Test: in vitro
Conditions: human
experimental.endpoint: CC50 at 72 h (µM)
Give a bare numeral; the unit µM is implied.

Request: Look up and report measured CC50 at 72 h for this entry: CCOC(=O)COc1ccc2c(=O)cc(-c3ccccc3)oc2c1 [Efloxate, efloxate]
Response: 35

----------
Assay: Cytotoxicity measurement by MTT assay
Format: cell-based
Details: African green monkey, Vero-E6 cells
experimental.endpoint: CC50 at 48 h

Request: Return CC50 at 48 h (reported value) for this molecule: CCOC(=O)COc1ccc2c(=O)cc(-c3ccccc3)oc2c1 [Efloxate, efloxate]
Response: > 50 µM
